Some compounds, each annotated with its measured EC50.
target: ΔF508-CFTR (Homo sapiens, UniProt P13569, DEL508-508); construct: host or cells: CFBE41o-, doxycycline-inducible; assay: CFTR cell surface levels using HRP-tagged ΔF508-CFTR expressing CFBE cells, intrinsic corrector capacity; format: cell-based
Write the number in µM without appending the unit.

• COCC1CCN(c2cc(C(=O)NS(=O)(=O)N3CCC(N4CCCC4)CC3)nc3c2c(C2CCC2)nn3-c2ccccc2)CC1 [Compound 388] = 0.218
• CS(=O)(=O)NC(=O)c1cc(N2CCC(CCN3CCOCC3)CC2)c2c(C3CCC3)nn(-c3ccccc3)c2n1 [Compound 331] = 0.136

Moving on to the next compound.
-- ask // returns reported EC50 for input CS(=O)(=O)NC(=O)c1cc(N2CCC(N3CCCCC3)CC2)c2c(C3CCC3)nn(-c3ccccc3)c2n1 [Compound 365]
-- reply 1.67

====

biological target: ΔF508-CFTR (Homo sapiens, UniProt P13569, DEL508-508); construct: host or cells: CFBE41o-, doxycycline-inducible; test: CFTR cell surface levels using HRP-tagged ΔF508-CFTR expressing CFBE cells, in the presence of a co-corrector; type: cell-based; settings: HRP-tagged ΔF508-CFTR CFBE cells, in the presence of 3 μM co-corrector; read-out: EC50
READOUT_NAME: pEC50
pEC50 here: minus log base 10 of the concentration, concentration in moles per litre.

- CN1CCN(S(=O)(=O)NC(=O)c2cc(N3CCC(N4CCOCC4)CC3)c3c(C4CCC4)nn(-c4ccc(F)cc4)c3n2)CC1 [Compound 624]: 6.26

-- ask Reported pEC50 for ΔF508-CFTR (Homo sapiens, UniProt P13569, DEL508-508), given CC(C)Oc1nn(C2CCCCC2)c2nc(C(=O)NS(=O)(=O)N(C)C)cc(-c3ccc(C(=O)N4CCC(N(C)C)CC4)cc3)c12 [Compound 546] ?
-- reply 6.74

-- ask How about this compound: CN(C)S(=O)(=O)NC(=O)c1cc(CN2CCOCC2)c2c(C3CCC3)nn(-c3ccc(F)cc3)c2n1 [Compound 520]
-- reply 6.03

-- ask Request: CCS(=O)(=O)NC(=O)c1cc(-c2ccc(OC)cc2)c2c(C)nn(-c3ccc(C)c(Cl)c3)c2n1 [Compound 114]
-- reply 6.02

-- ask Next compound: CS(=O)(=O)NC(=O)c1cc(N2CCC(N3CCOCC3)CC2)c2c(C3CCC3)nn(-c3ccnc(C4CCOCC4)c3)c2n1 [Compound 490]
-- reply 6.16

====

molecular target: ΔF508-CFTR (Homo sapiens, UniProt P13569, DEL508-508); construct: host or cells: CFBE41o-, doxycycline-inducible; test: CFTR cell surface levels using HRP-tagged ΔF508-CFTR expressing CFBE cells, in the presence of a co-corrector; type: cell-based; details: HRP-tagged ΔF508-CFTR CFBE cells, in the presence of 3 μM co-corrector
READOUT_NAME: % Activation
Write the numeric value and append its unit.

Examples with their reported % Activation follow.
* O=C(NS(=O)(=O)N1CCC(N2CCCCC2)CC1)c1cc(OCC2CCOCC2)c2c(C3CCC3)nn(-c3ccccc3)c2n1 | 193.45%
* COCCS(=O)(=O)NC(=O)c1cc(-c2ccc(OC)cc2)c2c(C)nn(CC(C)C)c2n1 | 329.9%
* CN(C)S(=O)(=O)NC(=O)c1cc(N2CCC3C(CCN3C3CCOCC3)C2)c2c(C3CCC3)nn(-c3ccc(F)cc3)c2n1 (centres unmarked) | 477.32%
* CC(C)c1nn(-c2cccc(N3CCCC3)c2)c2nc(C(=O)NS(C)(=O)=O)cc(-c3ccc(N(C)C4CCOCC4)cc3)c12 | 665.7%
* CN(C(=O)c1cc(N2CCC(CN3CCCC3)CC2)c2c(C3CCC3)nn(-c3ccccc3)c2n1)S(C)(=O)=O | 346.65%
* CCS(=O)(=O)NC(=O)c1cc(-c2ccc(N(C)C)nc2)c2c(C(C)C)nn(C3CCCC3)c2n1 | 336.75%

-- ask Lookup: % Activation / ΔF508-CFTR (Homo sapiens, UniProt P13569, DEL508-508) / CS(=O)(=O)NC(=O)c1cc(-c2ccc(N3CCC(C#N)CC3)cc2)c2c(C3CCC3)nn(C3CCCCC3)c2n1
-- reply 501.03%

-- ask Try this compound too: CC(C)c1nn(-c2cccc(N3CCOCC3)c2)c2nc(C(=O)NS(C)(=O)=O)cc(-c3cnc(N(C)C)nc3)c12
-- reply 591.4%

-- ask Param item: C#CCCS(=O)(=O)NC(=O)c1cc(N2CCC(N3CCOCC3)CC2)c2c(C3CCC3)nn(-c3ccc(F)cc3)c2n1
-- reply 536.7%

-- ask O=C(NS(=O)(=O)CCCN1CCOCC1)c1cc(N2CCC(N3CCCCC3)CC2)c2c(C3CCC3)nn(-c3ccccc3)c2n1 ?
-- reply 430.2%

-- ask Request: O=C(NS(=O)(=O)N1CCOCC1)c1cc(N2CCC(N3CCOCC3)CC2)c2c(C3CCC3)nn(-c3ccccc3)c2n1
-- reply 412.20%

====

target: CFTR ΔF508 (Homo sapiens, UniProt P13569, DEL508-508); construct: bronchial epithelial cells isolated from CF patients homozygous for the CFTR ΔF508 mutation; McGill University; Asterand; University of North Carolina hAEC-CF; host or cells: primary human bronchial epithelial cells from CF patients homozygous for ΔF508, differentiated at air-liquid interface; assay: Chronic TECC assay, primary bronchial epithelial cells of CF patients homozygous for CFTR ΔF508 (corrector, co-corrector and potentiator); assay type: cell-based; conditions: chronic TECC; AUC = full area under the curve upon forskolin stimulation; read-out: EC50 (nM) (AUC**)
Sequence (P13569 with tags, fused parts or gaps DEL508-508): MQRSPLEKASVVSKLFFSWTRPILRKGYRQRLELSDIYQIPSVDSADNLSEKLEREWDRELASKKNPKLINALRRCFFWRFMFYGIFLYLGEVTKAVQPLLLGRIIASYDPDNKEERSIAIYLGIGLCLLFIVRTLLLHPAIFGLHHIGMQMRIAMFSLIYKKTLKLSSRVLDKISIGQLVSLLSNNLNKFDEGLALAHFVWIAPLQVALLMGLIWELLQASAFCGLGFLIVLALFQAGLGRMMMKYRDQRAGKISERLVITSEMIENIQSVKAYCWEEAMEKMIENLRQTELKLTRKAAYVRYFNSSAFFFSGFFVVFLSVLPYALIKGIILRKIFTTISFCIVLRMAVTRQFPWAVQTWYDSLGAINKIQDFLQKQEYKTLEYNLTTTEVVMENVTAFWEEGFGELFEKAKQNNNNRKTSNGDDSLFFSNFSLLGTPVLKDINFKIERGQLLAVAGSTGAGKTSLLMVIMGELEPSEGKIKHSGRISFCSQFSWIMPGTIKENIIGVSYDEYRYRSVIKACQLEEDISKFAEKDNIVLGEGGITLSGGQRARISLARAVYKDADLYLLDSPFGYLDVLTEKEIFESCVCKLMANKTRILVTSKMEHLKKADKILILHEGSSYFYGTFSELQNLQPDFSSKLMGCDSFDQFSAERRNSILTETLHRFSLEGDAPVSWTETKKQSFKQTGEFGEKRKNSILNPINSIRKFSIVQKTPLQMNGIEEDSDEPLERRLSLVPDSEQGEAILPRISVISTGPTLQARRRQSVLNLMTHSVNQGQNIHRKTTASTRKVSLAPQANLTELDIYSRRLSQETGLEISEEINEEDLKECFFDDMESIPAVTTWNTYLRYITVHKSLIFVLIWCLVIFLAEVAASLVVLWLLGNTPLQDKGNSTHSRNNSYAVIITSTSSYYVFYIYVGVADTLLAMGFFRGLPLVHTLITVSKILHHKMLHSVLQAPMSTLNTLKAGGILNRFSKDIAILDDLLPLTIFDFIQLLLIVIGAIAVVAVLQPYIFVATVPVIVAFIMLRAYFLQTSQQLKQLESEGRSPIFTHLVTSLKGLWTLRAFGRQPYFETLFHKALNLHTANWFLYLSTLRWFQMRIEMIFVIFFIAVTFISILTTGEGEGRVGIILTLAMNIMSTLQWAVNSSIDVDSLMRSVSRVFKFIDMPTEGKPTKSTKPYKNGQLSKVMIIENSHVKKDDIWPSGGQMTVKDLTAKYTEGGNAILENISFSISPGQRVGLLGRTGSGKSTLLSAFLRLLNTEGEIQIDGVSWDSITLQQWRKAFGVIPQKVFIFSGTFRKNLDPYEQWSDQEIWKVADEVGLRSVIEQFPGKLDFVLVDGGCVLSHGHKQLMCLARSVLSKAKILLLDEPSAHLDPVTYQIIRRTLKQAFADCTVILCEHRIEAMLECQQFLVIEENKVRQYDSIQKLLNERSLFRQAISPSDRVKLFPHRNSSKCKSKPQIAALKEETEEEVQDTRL
# note: boundary value 20 nM maps to Condition not met; EC50 below it maps to Condition met

These recorded examples may help you get a feel for the data.
• CN(C)S(=O)(=O)NC(=O)c1cc(N2CCC(N3CCOCC3)CC2)c2c(C3CCC3)nn(-c3ccc(F)cc3)c2n1 = Condition not met
• CC(C)Oc1nn(C2CCCCC2)c2nc(C(=O)NS(=O)(=O)N(C)C)cc(-c3ccc(C(=O)N4CCN(C)CC4)cc3)c12 = Condition not met
• CN(C)S(=O)(=O)NC(=O)c1cc(N2CCC3C(CCN3C3CCOCC3)C2)c2c(C3CCC3)nn(-c3ccc(F)cc3)c2n1 (stereo not shown) = Condition not met
• CC(C)c1nn(-c2cccc(N(C)C)c2)c2nc(C(=O)NS(C)(=O)=O)cc(N3CCC(C#N)CC3)c12 = Condition not met
• COC1CCN(c2cc(C(=O)NS(C)(=O)=O)nc3c2c(C(C)C)nn3-c2cccc(N(C)C)c2)CC1 = Condition met

-- ask State whether 20 nM exceeds EC50 recorded for CC(C)(O)C1CCN(c2cc(C(=O)NS(C)(=O)=O)nc3c2c(C2CCC2)nn3-c2ccccc2)CC1 .
-- reply Condition not met

-- ask Another compound to check: CNS(=O)(=O)NC(=O)c1cc(N2CCC(N3CCC(OC)CC3)CC2)c2c(C3CCC3)nn(-c3ccc(F)cc3)c2n1
-- reply Condition met

====

molecular target: ΔF508-CFTR (Homo sapiens, UniProt P13569, DEL508-508); construct: host or cells: CFBE41o-, doxycycline-inducible; assay: CFTR cell surface levels using HRP-tagged ΔF508-CFTR expressing CFBE cells, in the presence of a co-corrector; type: cell-based; settings: HRP-tagged ΔF508-CFTR CFBE cells, in the presence of 3 μM co-corrector; read-out: EC50
READOUT_NAME: log10 of EC50 (log10 of the value in µM)
// stored as log10 of EC50 expressed in µM

Previously resolved entries follow.
* CC(C)c1nn(-c2ccc(F)cc2)c2nc(C(=O)NS(C)(=O)=O)cc(N3CCC(C(C)(C)O)CC3)c12 | -1.25
* COCCS(=O)(=O)NC(=O)c1cc(N2CCC(CN3CCOCC3)CC2)c2c(C3CCC3)nn(-c3ccc(F)cc3)c2n1 | -1.19
* CCOC(=O)N1CCC(c2cc(C(=O)NS(C)(=O)=O)nc3c2c(C(C)C)nn3-c2ccc(F)cc2)CC1 | -0.61
* CN(C)S(=O)(=O)NC(=O)c1cc(N2CCC(N3CCOCC3)CC2)c2c(C3CCC3)nn(-c3ccccc3)c2n1 | -1.03
* CC(C)c1nn(-c2cccc(N3CCOCC3)c2)c2nc(C(=O)NS(C)(=O)=O)cc(-c3ccc(N4CCC(C#N)CC4)nc3)c12 | -0.63

-- ask For CN(C)S(=O)(=O)NC(=O)c1cc(C2CCN(C3CCOCC3)CC2)c2c(C3CCC3)nn(-c3ccc(F)cc3)c2n1 , what is its reported log10 of EC50?
-- reply 0.52

-- ask Another molecule: Cc1nn(-c2ccccc2)c2nc(C(=O)NS(C)(=O)=O)cc(-c3ccc(N4CCOCC4)nc3)c12
-- reply 0.06
